# normalized growth values compiled below
- assay-remarks: chemical genetic growth profiling, strain panel (AID 1159580);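 further: tested at 20 µM; growth read once vehicle control cultures reached saturation at 30 °C; 1 = growth at the plate median or of vehicle wells; lower values mean less growth of the strain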
- particulars: S. cerevisiae deletion strains, growth OD, locus YDL101C, strain DUN1, active compounds read low
Out of some 5,500 compounds screened, about 2,000 (36%) were called active. Not shown: some 18% with an inconclusive outcome. The list shows a part of the results.
measurement-kind: normalized growth

{"smiles-string": "CC[C@H]1OC(=O)[C@H](C)[C@@H](O[C@H]2C[C@@](C)(OC)[C@@H](O)[C@H](C)O2)[C@H](C)[C@@H](O[C@@H]2O[C@H](C)C[C@H](N(C)C)[C@H]2O)[C@](C)(O)C[C@@H](C)[C@@H]2N[C@@H](COCCOC)O[C@H]([C@H]2C)[C@]1(C)O", "recorded-result": 1.05}
{"smiles-string": "Cc1cccc(C(=O)c2ccccc2C(=O)O)c1", "recorded-result": 1}
{"smiles-string": "C/C(=N/NC(=O)c1ccc(C(C)(C)C)cc1)c1ccccc1O", "recorded-result": 0.963}
{"smiles-string": "O=c1c(O)c(-c2ccc(O)c(O)c2)oc2cc(O)ccc12", "recorded-result": 0.98}
{"smiles-string": "O=c1c(-c2ccccc2)c(O)c2cccc3c4ccccc4n1c23", "recorded-result": 0.226}
{"smiles-string": "COc1cc(-c2oc3cc(O)ccc3c(=O)c2O)cc(OC)c1OC", "recorded-result": 0.999}
{"smiles-string": "COc1cccc(C(=O)N/N=C(/C)c2ccccc2O)c1", "recorded-result": 0.93}
{"smiles-string": "O=c1c(-c2ccccc2)c(O)c2cccc3c4c(n1c23)CCCC4", "recorded-result": 0.973}
{"smiles-string": "O=C(COC(=O)c1ccccc1C(=O)c1ccccc1)c1ccccc1", "recorded-result": 0.97}
